Where do the numbers come from? From ChEMBL document CHEMBL1201862.

Biological target: Cytochrome P450 2C9 (Homo sapiens, UniProt P11712)
Sequence (P11712 whole entry): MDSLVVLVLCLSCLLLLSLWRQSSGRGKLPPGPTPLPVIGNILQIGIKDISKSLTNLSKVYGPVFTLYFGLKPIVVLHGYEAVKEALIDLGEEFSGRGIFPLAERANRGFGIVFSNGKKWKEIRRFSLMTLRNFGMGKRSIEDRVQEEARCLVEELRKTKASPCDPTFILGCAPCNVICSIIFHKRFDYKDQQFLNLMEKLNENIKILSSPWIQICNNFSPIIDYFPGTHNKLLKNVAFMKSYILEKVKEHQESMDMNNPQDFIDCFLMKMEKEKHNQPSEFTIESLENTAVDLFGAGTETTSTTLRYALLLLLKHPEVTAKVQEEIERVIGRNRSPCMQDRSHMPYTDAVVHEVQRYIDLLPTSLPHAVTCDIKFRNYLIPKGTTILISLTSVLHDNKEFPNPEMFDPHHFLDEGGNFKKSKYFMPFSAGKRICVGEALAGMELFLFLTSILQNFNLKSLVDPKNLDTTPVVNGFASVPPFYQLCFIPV
REPORTED METRIC: AC50

Consider the worked cases shown below.
molecule="COc1ccc(/C=C(\\C#N)C(=O)NCC2CCCO2)cc1OC (stereo unspecified)" system="Cytochrome P450 2C9 (Homo sapiens, UniProt P11712)" observed_value=inconclusive
molecule=CC(C)(C)C(=O)NNC(=O)CCCOc1ccc(Cl)cc1Cl system="Cytochrome P450 2C9 (Homo sapiens, UniProt P11712)" observed_value=inconclusive
molecule=COc1ccc(Br)cc1/C=C/C(=O)Nc1c(C)cccc1C system="Cytochrome P450 2C9 (Homo sapiens, UniProt P11712)" observed_value=inconclusive
molecule=Cc1[nH]c(=O)c(C(=O)/C=C/c2ccccc2F)c2c1CCCC2 system="Cytochrome P450 2C9 (Homo sapiens, UniProt P11712)" observed_value=inconclusive
molecule=O=C(O)CCCC[C@H]1CCSS1 system="Cytochrome P450 2C9 (Homo sapiens, UniProt P11712)" observed_value=inconclusive

Now for the molecule whose AC50 we want.
Please look up its AC50: Cc1c(C(=O)Nc2ccc(OCc3ccccc3)cc2)cccc1[N+](=O)[O-]
inconclusive

====

Target: Apoptotic protease-activating factor 1 (Homo sapiens, UniProt O14727)
Sequence (O14727 whole entry): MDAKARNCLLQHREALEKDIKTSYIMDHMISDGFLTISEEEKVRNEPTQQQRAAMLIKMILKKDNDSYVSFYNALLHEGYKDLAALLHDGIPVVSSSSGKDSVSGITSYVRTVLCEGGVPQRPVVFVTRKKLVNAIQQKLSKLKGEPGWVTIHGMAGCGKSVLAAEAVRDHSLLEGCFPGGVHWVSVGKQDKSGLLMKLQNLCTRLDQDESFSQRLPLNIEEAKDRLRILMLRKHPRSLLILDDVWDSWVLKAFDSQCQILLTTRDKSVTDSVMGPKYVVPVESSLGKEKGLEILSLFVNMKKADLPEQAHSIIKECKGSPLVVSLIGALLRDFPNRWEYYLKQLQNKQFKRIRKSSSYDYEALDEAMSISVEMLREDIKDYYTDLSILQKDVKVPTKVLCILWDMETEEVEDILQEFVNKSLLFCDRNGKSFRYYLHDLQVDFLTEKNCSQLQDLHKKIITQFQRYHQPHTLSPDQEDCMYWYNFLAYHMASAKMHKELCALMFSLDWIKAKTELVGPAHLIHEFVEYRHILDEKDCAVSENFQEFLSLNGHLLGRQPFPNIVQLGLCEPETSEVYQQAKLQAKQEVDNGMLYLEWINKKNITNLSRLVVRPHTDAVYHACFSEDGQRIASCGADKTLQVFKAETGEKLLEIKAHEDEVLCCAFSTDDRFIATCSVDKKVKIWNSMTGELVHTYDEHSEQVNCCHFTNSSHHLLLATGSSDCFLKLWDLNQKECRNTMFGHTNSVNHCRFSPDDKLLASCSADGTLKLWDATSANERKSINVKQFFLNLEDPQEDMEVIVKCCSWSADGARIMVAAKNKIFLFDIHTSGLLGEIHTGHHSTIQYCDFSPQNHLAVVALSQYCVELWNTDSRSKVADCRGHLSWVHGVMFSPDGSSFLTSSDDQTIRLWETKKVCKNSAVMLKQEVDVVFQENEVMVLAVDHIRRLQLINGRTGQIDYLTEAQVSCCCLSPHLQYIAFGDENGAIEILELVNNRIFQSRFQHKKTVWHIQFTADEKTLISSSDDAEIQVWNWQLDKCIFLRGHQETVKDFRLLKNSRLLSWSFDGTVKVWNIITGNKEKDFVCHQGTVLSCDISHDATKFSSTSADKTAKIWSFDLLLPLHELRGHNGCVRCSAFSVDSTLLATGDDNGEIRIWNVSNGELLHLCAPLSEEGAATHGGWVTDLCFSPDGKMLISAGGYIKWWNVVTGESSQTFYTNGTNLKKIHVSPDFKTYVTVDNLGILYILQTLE
Type: functional
Active and inactive are the calls of the source.
Outcome (select one): active, inactive

Tell me the assay call for CCCCn1cc[n+](C2=C([N-]S(=O)(=O)c3ccc(Br)cc3)C(=O)c3ccccc3C2=O)c1 please.
active

Similarly, O=C(NC1=C(Nc2ccc(F)cc2)C(=O)c2ccccc2C1=O)c1ccc(Cl)cc1 ?
active

Query COc1cc2cc(NC(C)=O)cc(NCc3ccccc3)c2cc1OC next
active

# repeat for CCOc1ccc(NC(=O)CN(C)C(=O)c2ccc(COc3ccccc3)cc2)cc1OCC
inactive

Next compound up: COCCN1C=C2C(=O)C(C)(OC(=O)CCC(=O)OC)C(=O)C(Br)=C2C=C1c1ccc(OC)cc1 (centres undefined)
active

# iterate: CCN(CC)CCOc1ccc2c(c1)C(=NNC(=O)c1ccccn1)c1cc(OCCN(CC)CC)ccc1-2
active

// repeat for Cc1nnc(N=c2ssnc2Cl)o1 and report
active

For Oc1nc(Nc2ccc(F)cc2)cc2ccccc12 then?
active

Follow-up entry: CN(C)c1cc(N/N=C\c2ccccc2)nc(N(C)C)n1
active

====

Biological target: Corticotropin-releasing factor receptor 2/Corticotropin-releasing factor-binding protein (Homo sapiens, UniProt P24387+Q13324)
Sequence (Q13324 whole entry): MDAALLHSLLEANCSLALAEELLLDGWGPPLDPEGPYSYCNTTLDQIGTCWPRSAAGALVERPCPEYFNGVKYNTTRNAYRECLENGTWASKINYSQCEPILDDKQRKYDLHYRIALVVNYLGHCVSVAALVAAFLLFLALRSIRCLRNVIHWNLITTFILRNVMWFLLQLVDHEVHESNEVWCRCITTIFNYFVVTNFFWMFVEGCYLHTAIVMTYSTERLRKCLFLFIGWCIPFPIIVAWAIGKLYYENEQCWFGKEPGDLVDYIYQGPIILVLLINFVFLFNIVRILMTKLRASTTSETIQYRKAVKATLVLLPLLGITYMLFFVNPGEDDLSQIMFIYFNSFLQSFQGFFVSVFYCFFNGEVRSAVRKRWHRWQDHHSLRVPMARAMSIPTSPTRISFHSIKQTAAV
Sequence (P24387 whole entry): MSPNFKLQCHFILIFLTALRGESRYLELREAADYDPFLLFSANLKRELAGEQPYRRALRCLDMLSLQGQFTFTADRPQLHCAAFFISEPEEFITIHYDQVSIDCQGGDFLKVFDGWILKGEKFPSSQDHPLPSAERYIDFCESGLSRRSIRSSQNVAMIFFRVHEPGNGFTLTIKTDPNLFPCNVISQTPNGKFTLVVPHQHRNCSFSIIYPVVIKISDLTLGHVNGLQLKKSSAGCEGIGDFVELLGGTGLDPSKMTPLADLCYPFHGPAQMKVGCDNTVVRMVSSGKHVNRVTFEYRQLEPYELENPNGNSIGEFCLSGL
Assay: Dose Response confirmation of uHTS hits for small molecule antagonists of the CRF-binding protein and CRF-R2 receptor complex.
Format: functional
Settings: read-out: IC50_Mean
Calls of active or inactive are those of the source.
Choose the fitting class; nothing outside t (active), f (inactive) is accepted.

Which outcome was assigned to CC(=O)C1=C(O)C(=O)N(c2nccs2)C1c1ccccc1 (stereo not given) in this test?
f

// same read-out, input: CCOc1ccc(-n2c(SCC(=O)NCc3ccco3)nc3c4ccccc4nc-3c2O)cc1
t

Another compound to look at: CN(C)c1ncnc2c1N=C1CC(C)(C)CC(NCCCC(=O)O)=C1S2
f

Now give it for CC[C@@H](C)[C@@H]1CN([C@@H](CN2CCC[C@H]2CN2C(N)=NC[C@H]2CC(C)C)C(C)C)C(=N)N1CCc1ccc(Cl)c(Cl)c1 too.
t

Further, for CC1CCN(C(=O)c2nc[nH]c2C(=O)N[C@@H](C)C(=O)OC(C)(C)C)CC1 ?
f

====

Molecular target: Rac GTPase-activating protein 1 (Homo sapiens, UniProt Q9H0H5)
Sequence (Q9H0H5 whole entry): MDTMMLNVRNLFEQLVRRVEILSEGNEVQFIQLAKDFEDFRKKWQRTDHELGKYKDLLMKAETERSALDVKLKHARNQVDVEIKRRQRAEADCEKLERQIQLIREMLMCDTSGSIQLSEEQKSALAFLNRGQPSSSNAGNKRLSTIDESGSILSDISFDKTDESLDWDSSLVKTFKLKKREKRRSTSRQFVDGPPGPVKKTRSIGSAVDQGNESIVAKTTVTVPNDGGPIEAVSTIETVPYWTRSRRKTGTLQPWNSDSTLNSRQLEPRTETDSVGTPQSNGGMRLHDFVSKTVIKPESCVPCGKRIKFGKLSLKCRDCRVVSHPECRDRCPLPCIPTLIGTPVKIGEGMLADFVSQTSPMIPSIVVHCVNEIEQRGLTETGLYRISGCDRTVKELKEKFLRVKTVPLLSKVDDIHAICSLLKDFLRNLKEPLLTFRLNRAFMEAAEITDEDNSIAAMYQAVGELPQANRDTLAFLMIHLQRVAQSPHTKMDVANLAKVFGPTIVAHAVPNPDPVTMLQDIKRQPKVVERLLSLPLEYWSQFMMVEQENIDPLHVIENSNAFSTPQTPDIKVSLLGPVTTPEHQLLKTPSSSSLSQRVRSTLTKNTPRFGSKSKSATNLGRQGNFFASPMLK
Test: blockers of MgcRacGAP-driven Rac1 GTP hydrolysis – biochemical, ADP Hunter fluorescence, primary and confirmatory, confirmation (AID 624330)
Type: functional
Calls of active or inactive are those of the source.
Answer each item with its documented IC50.

I would be grateful if you could share the reported IC50 for Cc1ccc(-n2sc3cc(F)ccc3c2=O)c(C)c1 .
35.8 µM (active)

Do the same for Cc1nnc(N=c2ssnc2Cl)o1 please
69.6 µM (active)

Also CCN1/C(=C/c2ccc3cc(C)ccc3[n+]2CC)Sc2cc(C)ccc21 , if possible.
80.4 µM (active)

Try this compound too: COc1cc(/C=C/C(=O)N[C@@H](Cc2c[nH]c3ccccc23)C(=O)O)ccc1O
80 µM (active)

Also check CCN1CCN(C(C)C(=O)NC2CCCCC2)CC1 (stereo not drawn)
75.6 µM (active)

Try this compound too: Nc1nc(=S)ss1
301 µM (active)

And then Cc1cc(/C=C(\C#N)C(=O)N2CCCCC2)cc(C)c1O , what is it?
59.4 µM (active)

What about Oc1ccc(N2CCN(C(=S)NCCc3ccccc3)CC2)cc1 ?
26.1 µM (active)

Further, for CCOc1ccccc1CN(CCc1ccc2c(c1)OCO2)Cc1ccccn1 ?
172 µM (active)

And what about the compound CCOc1ccc(OCCOCCN2CCCC2)cc1 ?
109 µM (active)

Quick one: O=C1C(=Cc2ccco2)CCC1=Cc1ccco1
32.4 µM (active)

Please do the same for COc1cc2cc(NC(C)=O)cc(NCc3ccccc3)c2cc1OC as well.
49.6 µM (active)

Also COc1cc(/C=N/NC(=O)CNC(=O)c2ccco2)ccc1O , if possible.
38.5 µM (active)

Likewise for CSc1nc(C)c2c(n1)N(c1ccc(O)cc1)CC2 ?
16.8 µM (active)

For COc1cc(/C=C/C(=O)OCC(=O)NCCCc2ccccc2)ccc1O then?
41.5 µM (active)

Now the same for CC(C)NCC#CCOc1ccc(Cl)cc1
162 µM (active)

Next compound: CCOc1ccc(Nc2nnc(S)s2)cc1
54.8 µM (active)

Same again, this time with CCN1CCN(CCCCOc2ccccc2F)CC1
70.1 µM (active)

# repeat for CCc1cc(/C(Cc2cscn2)=N\O)c(O)cc1O
52 µM (active)

How about this compound: COC(=O)CCNc1ccc2c(c1)OCCO2
251 µM (active)

And what about the compound COc1ccc(CNc2ncc(-c3ccc(F)cc3)n2C)c2ccccc12 ?
62.6 µM (active)

What would you report for COC1=C(Nc2ccc(O)cc2)C(=O)c2ccccc2C1=O ?
24.4 µM (active)

And for O=C(Cc1coc2cc(O)ccc12)NNC(=O)c1ccc(Br)s1 ?
31.8 µM (active)

And CC(C)Cn1c(-c2ccc(Br)o2)n[nH]c1=S ?
105 µM (active)

Further, for Cc1nc(C)c(CC(=O)N/N=C/c2ccc(O)cc2)c(O)n1 ?
69.6 µM (active)

Input CCN(CC)c1ccc(NC(=O)CN2C(=O)NC3(CCc4ccccc43)C2=O)cc1 (stereo not drawn)
89.8 µM (active)

// repeat for CCN(CC)c1ccc(NC(=O)CNCc2ccccc2Cl)c(C)c1 and report
31 µM (active)

# iterate: COc1ccc(NCc2cccnc2)cc1
53.1 µM (active)

Please answer likewise for O=C(CC(c1ccccc1)c1ccccc1)Nc1ccc(O)cc1
47.2 µM (active)

Another: COc1ccccc1N1CCN(/N=C/c2cc(OC)c(O)c(OC)c2)CC1
252 µM (active)

Please give the result for O=C(O)c1ccc2c(c1)[C@@H]1C=CC[C@@H]1[C@H](c1ccccn1)N2 too.
360 µM (active)

Let us now turn to O=C1NC(=S)S/C1=C\c1cc(Cl)cc(Cl)c1O
65.4 µM (active)

Field entry: O=C(CCc1ccc(O)c(O)c1)N/N=C/c1ccc2c(c1)OCO2
91.7 µM (active)

Please do the same for Cc1ccc(Nc2nnc(S)s2)c(C)c1 as well.
154 µM (active)

And CN(C)c1ncnc2c1N=C1CC(C)(C)CC(NCCCC(=O)O)=C1S2 ?
78.8 µM (active)

Likewise for COc1ccc(N2CCN(CC(=O)Nc3cccc(S(=O)(=O)N4CCOCC4)c3)CC2)cc1 ?
77.5 µM (active)

Now this one: CCN(CC)CCOc1ccc2c(c1)C(=NNC(=O)c1ccccn1)c1cc(OCCN(CC)CC)ccc1-2
31.3 µM (active)

Request: COc1cc(/C=N/NC(=O)CCN2CCN(C(c3ccccc3)c3ccccc3)CC2)ccc1O
50.9 µM (active)

Next record, please: C=CCc1cc(Cl)ccc1OCCNCCN1CCOCC1
90.8 µM (active)

// query: Brc1cccc(CNCCc2ccc3c(c2)OCO3)c1
179 µM (active)

Can you handle CCN1/C(=C/c2ccc3ccccc3[n+]2CC)C=Cc2ccccc21 next?
46.5 µM (active)

Now consider CCOc1cc(/C=C2/NC(=O)N(Cc3ccccc3F)C2=O)ccc1O .
44.5 µM (active)

How about CCC(CC)N1CCN(C(=O)c2cccc(Cl)c2)CC1 ?
193 µM (active)

How about this compound: COc1cc(/C=N/NC(=O)C2=NNC(=O)C2C)ccc1O (stereo not drawn)
76.3 µM (active)

Please give the result for c1nc2nc[nH]c(SSc3[nH]cnc4ncnc3-4)c-2n1 too.
75.2 µM (active)

One more compound: N#C/C(=C\c1cccnc1)C(=O)Nc1cccc2ccccc12
157 µM (active)

Cc1cc(C)c(C)c(OCCNCc2ccccc2)c1 , same question.
105 µM (active)

Sc1nnc(-c2ccncc2)n1/N=C/c1ccccc1 , same question.
51.9 µM (active)
